# chromatographic logP annotations
assay: log P determination by HPLC (reversed-phase C18), EEC Directive 79/831 Annex V.A8; assay type: physicochemical; settings: reversed-phase C18 HPLC column; pH 2.3; HPLC reversed-phase C18, 43° C.
Reply with just the number.

Q) I am curious: what chromatographic logP value has been reported for COC(=O)c1ccoc1COc1cc(-n2c(=O)cc(C(F)(F)F)n(N)c2=O)c(F)cc1Br [Example 3] ?
A) 3

Q) I am curious: what chromatographic logP value has been reported for COC(=O)c1occc1COc1cc(-n2c(=O)cc(C(F)(F)F)n(C)c2=O)c(F)cc1Br [Example 2] ?
A) 3.34
